# Test system: Canis familiaris
# Protocol text: Antiarrhythmic activity in anesthetized acute myocardial infarction dog model assessed as normal ECG complexes at 1.25 mg/kg, iv administered 10 mins prior to infarction measured during 1-hr postinfarction period (reference value: 19%)
# Type: functional, Canis lupus familiaris, Heart
Experimental readout: Activity (%)

compound=NCc1ccccc1C(F)(F)C(F)(F)c1ccc(F)cc1 experimental_readout=Activity endpoint_value=52
compound=Cl.NCc1ccccc1C(F)(F)C(F)(F)c1ccccc1 experimental_readout=Activity endpoint_value=91
compound=Br.FC(F)(c1ccccc1)C(F)(F)c1cccc(CNCc2ccccc2)c1CNCc1ccccc1 experimental_readout=Activity endpoint_value=98
compound="CC(N)c1ccccc1C(F)(F)C(F)(F)c1ccccc1.O=C(O)/C=C\\C(=O)O (stereo not given)" experimental_readout=Activity endpoint_value=82
compound="CC(N)c1ccc(C(F)(F)C(F)(F)c2ccccc2)cc1.Cl (stereo not given)" experimental_readout=Activity endpoint_value=25
compound=CN(C)C(C)(C)c1ccc(C(F)(F)C(F)(F)c2ccccc2)cc1.Cl experimental_readout=Activity endpoint_value=53
compound=CNC(C)(C)c1ccc(C(F)(F)C(F)(F)c2ccccc2)cc1.Cl experimental_readout=Activity endpoint_value=86
compound="CNC(C)c1ccccc1C(F)(F)C(F)(F)c1ccccc1.O=C(O)/C=C\\C(=O)O (stereo not given)" experimental_readout=Activity endpoint_value=91
compound="CNC(C)c1ccccc1C(F)(F)C(F)(F)c1ccccc1.O=C(O)C(O)C(O)C(=O)O (single isomer, unassigned; (+))" experimental_readout=Activity endpoint_value=72
compound=Cl.NCc1ccccc1C(F)(F)C(F)(F)C(F)(F)c1ccccc1 experimental_readout=Activity endpoint_value=68
compound=Cc1ccc(C(F)(F)C(F)(F)c2ccc(C(C)(C)N)cc2)cc1.Cl experimental_readout=Activity endpoint_value=75
compound=CC(C)(N)c1cccc(C(F)(F)C(F)(F)c2ccccc2)c1.Cl experimental_readout=Activity endpoint_value=45
compound=CC(O)C(=O)O.NCc1ccccc1C(F)(F)C(F)(F)c1ccccc1CN experimental_readout=Activity endpoint_value=59
compound=Br.CNCc1cccc(C(F)(F)C(F)(F)c2ccccc2)c1CNC experimental_readout=Activity endpoint_value=65
compound=CC(C)(N)c1ccc(C(F)(F)C(F)(F)c2ccccc2)cc1.Cl experimental_readout=Activity endpoint_value=89
